Test system: rat mixed hippocampal cultures
Assay: 3-NP neurotoxicity assay, MTT viability, rat mixed hippocampal cultures
Type: cell-based
Conditions: Rattus norvegicus; Table 2; vs 3 mM 3-NP 18 h, 1 h preincubation; test concentration (10 μM); read-out: % Protection
Quick reference: inhibition at 10 µM of the listed items.
The answer consists of two parts: a number and, after it, its unit.

{"columns": ["molecule", "assayed_system", "inhibition at 10 µM"],
 "data": [
  ["CC1(C)C(=O)C=C[C@@]2(C)C1CC(=O)[C@@]1(C)C3=CC(=O)O[C@@H](c4ccoc4)[C@]3(C)CCC12 (stereo partly shown)", "rat mixed hippocampal cultures", "24%"],
  ["CC(=O)O[C@H]1C[C@@H](OC(C)=O)C(C)(C)C2CC(=O)[C@]3(C)C(CC[C@@]4(C)[C@H](c5ccoc5)OC(=O)[C@H]5O[C@]543)[C@]21C (stereo partly shown)", "rat mixed hippocampal cultures", "36%"],
  ["CC(=O)O[C@@H]1CC2C(C)(C)C(=O)C3OC3[C@]2(C)C2CC[C@@]3(C)C(=CC(=O)O[C@@H]3c3ccoc3)[C@@]21C (stereo partly drawn) [1 (2)alpha- EPOXYDEOXYDIHYDRO- GEDUNIN, 1 (2)alpha-EPOXYDEOXYDIHYDROGEDUNIN]", "rat mixed hippocampal cultures", "14%"],
  ["CC(=O)O[C@@H]1CC2C(C)(C)CCC[C@]2(C)C2CC[C@@]3(C)[C@H](c4ccoc4)OC(=O)C4OC43[C@@]21C (stereo partly shown) [DEOXODIHYDROGEDUNIN]", "rat mixed hippocampal cultures", "101%"],
  ["CC(=O)OC1C[C@H](OC(C)=O)[C@@]2(C)C(C[C@@H](OC(C)=O)[C@]3(C)C2CC[C@@]2(C)[C@H](c4ccoc4)OC(=O)[C@H]4O[C@]423)C1(C)C (stereo partly shown)", "rat mixed hippocampal cultures", "70%"],
  ["CC1(C)C(=O)C=C[C@@]2(C)C1CC(=O)[C@]1(C)C2CC[C@@]2(C)[C@H](c3ccoc3)OC(=O)[C@H]3O[C@]321 (stereo partly shown)", "rat mixed hippocampal cultures", "38%"],
  ["CC(=O)O[C@@H]1CC2C(C)(C)C(=O)CC[C@]2(C)C2CC[C@@]3(C)[C@@H](c4ccoc4)OC(=O)C4OC43[C@@]21C (stereo partly shown) [DIHYDROGEDUNIN]", "rat mixed hippocampal cultures", "28%"],
  ["C=C1C2CC[C@@]3(C)[C@H](c4ccoc4)OC(=O)C[C@]13OC1CC(=O)C(C)(C)C(CC(=O)OC)C12C (stereo partly shown) [[…], METHYL ESTER]", "rat mixed hippocampal cultures", "33%"]
]}

Indicate the recorded inhibition at 10 µM value for this molecule: CC1(C)C2CC(=O)[C@]3(C)C(CC[C@@]4(C)[C@H](c5ccoc5)OC(=O)[C@H]5O[C@]543)[C@@]2(C)C=C[C@@H]1O (stereo partly shown)
30%

Note inhibition at 10 µM for the molecule shown: CC(=O)O[C@H]1CC[C@]2(C)[C@H]3CC[C@@]4(C)[C@H](c5ccoc5)OC(=O)[C@H]5O[C@]54[C@]3(C)[C@H](OC(C)=O)C[C@H]2C1(C)C [3beta- ACETOXYDEOXODIHYDRO- GEDUNIN, 3beta-ACETOXYDEOXODIHYDROGEDUNIN]
39%

----------
Tested on: rat mixed hippocampal cultures
Test: 3-NP neurotoxicity assay, MTT viability, rat mixed hippocampal cultures
Assay type: cell-based
Settings: Rattus norvegicus; Table 2; vs 3 mM 3-NP 18 h, 1 h preincubation; test concentration (10 μM); read-out: % Protection
Each entry below lists one item and its recorded inhibition at 10 µM value.
# output: bare number, implied unit %

{"columns": ["molecule", "experimental_value"],
 "data": [
  ["CC(=O)OC1CC2C(C)(C)[C@@H](O)CC[C@]2(C)C2CC[C@]3(C)[C@H](c4ccoc4)OC(=O)[C@H]4O[C@]43[C@]12C (stereo partly drawn) [3beta- HYDROXYDEOXODIHYDRO- GEDUNIN, 3beta-HYDROXYDEOXODIHYDROGEDUNIN]", 82]
]}

Please give measured inhibition at 10 µM of the following entry: CC(=O)OC1CC2C(C)(C)[C@H](OC(C)=O)C[C@H](OC(C)=O)[C@]2(C)C2CC[C@]3(C)C(=CC(=O)O[C@@H]3c3ccoc3)[C@]12C (stereo partly shown) [DEOXYKHIVORIN]
36

Dear colleague, please send me the reported inhibition at 10 µM for CC(=O)O[C@H]1C[C@@H](OC(C)=O)C(C)(C)C2C[C@H](OC(C)=O)[C@]3(C)C(CC[C@@]4(C)[C@H](c5ccoc5)OC(=O)[C@H]5O[C@]543)[C@]21C (stereo partly shown) [7-EPIKHIVORIN] when you can.
65

Answer with reported inhibition at 10 µM of CC(=O)O[C@@H]1CC2C(C)(C)C(=O)C=C[C@]2(C)C2CC[C@@]3(C)[C@H](c4ccoc4)OC(=O)[C@H]4O[C@]43[C@@]21C (stereo partly shown) [GEDUNIN]
40

Give reported inhibition at 10 µM value for CC(=O)O[C@@H]1CC2C(C)(C)[C@H](O)C[C@H](O)[C@]2(C)C2CC[C@]3(C)[C@@H](c4ccoc4)OC(=O)[C@H]4O[C@]43[C@@]21C (stereo partly shown) [1,3-DIDEACETYLKHIVORIN]
129

----------
Tested on: rat mixed hippocampal cultures
Test: 3-NP neurotoxicity assay, MTT viability, rat mixed hippocampal cultures
Assay type: cell-based
Details: Rattus norvegicus; Table 2; vs 3 mM 3-NP 18 h, 1 h preincubation; test concentration (10 μM); read-out: % Protection
In this section we review reported inhibition at 10 µM values for a set of compounds.
Answer format: number, then unit.

Examples with their reported inhibition at 10 µM follow.
{"columns": ["compound", "inhibition at 10 µM"],
 "data": [
  ["CC(=O)O[C@H]1CC[C@@]2(C)C(C[C@@H](OC(C)=O)[C@@]3(C)C4=CC(=O)O[C@@H](c5ccoc5)[C@]4(C)CCC23)C1(C)C (stereo partly drawn) [3-DEOXO-3beta-ACETOXYDEOXYDIHYDROGEDUNIN]", "56%"],
  ["CC(=O)O[C@H]1CC[C@@]2(C)C(C[C@H](OC(C)=O)[C@@]3(C)C4=CC(=O)OC(c5ccoc5)[C@]4(C)CCC23)C1(C)C (some centres unmarked)", "61%"],
  ["CC(=O)O[C@@H]1CC[C@@]2(C)C(C[C@@H](OC(C)=O)[C@@]3(C)C4=CC(=O)O[C@@H](c5ccoc5)[C@]4(C)CCC23)C1(C)C (stereo partly drawn) [3alpha- ACETOXYDIHYDRODEOXY- GEDUNIN, 3alpha-ACETOXYDIHYDRODEOXYGEDUNIN]", "151%"],
  ["CC(=O)OC1C=C[C@@]2(C)C(C[C@@H](OC(C)=O)[C@@]3(C)C4=CC(=O)O[C@@H](c5ccoc5)[C@]4(C)CCC23)C1(C)C (some centres unmarked) [DEOXYGEDUNOL ACETATE]", "54%"],
  ["C=C1C2CC[C@@]3(C)[C@H](c4ccoc4)OC(=O)C[C@]13O[C@H]1CC(=O)C(C)(C)[C@H](C(O)C(=O)OC)[C@@]21C (some centres unmarked) [6-HYDROXYANGOLENSIC ACID METHYL ESTER]", "26%"],
  ["C=C1C2CC[C@]3(C)[C@@H](c4ccoc4)OC(=O)CC13O[C@H]1CC(O)C(C)(C)C(CC(=O)OC)[C@@]21C (some centres unmarked)", "35%"],
  ["C=C1C2CC[C@@]3(C)[C@H](c4ccoc4)OC(=O)C[C@]13O[C@H]1C[C@@H](OC(C)=O)C(C)(C)[C@H](CC(=O)OC)[C@@]21C", "128%"]
]}

# context switch: different compound, same inhibition at 10 µM
Give the reported inhibition at 10 µM for this compound. CC(=O)O[C@@H]1CC2C(C)(C)C=CC(=O)[C@]2(C)C2CC[C@@]3(C)[C@H](c4ccoc4)OC(=O)C4OC43[C@@]21C (some centres unmarked) [ISOGEDUNIN]
50%
